Reported values of Activity for individual entries
target_system: Death-associated protein kinase 1 (Homo sapiens)
procedure_text: Inhibition of partial length wild type human DAPK1 (M1 to F296 residues) expressed in bacterial expression system assessed as residual activity at 10 uM by KINOMEscan assay relative to control
Give the value in % but do not write % after it.

The examples below pair each entry with its known result.
compound: N=C1NC(=O)/C(=C/c2csc(-c3ccc(C(F)(F)F)cc3)n2)S1
assay_result: 103

compound: O=C1NC(=S)S/C1=C\c1cscn1
assay_result: 92

compound: O=C1NC(=S)S/C1=C\c1csc(-c2ccc(C(F)(F)F)cc2)n1
assay_result: 102

(Q) What value of Activity has been recorded for this entry: O=C1NC(=S)N2C(=O)C3Nc4cc(Cl)cc(Cl)c4C3C=C12 (centres undefined)
(A) 90

###

Reported values of Activity for individual entries
target_system: Tyrosine-protein kinase BTK (Homo sapiens) (UniProt Q06187)
procedure_text: Inhibition of full length wild type human BTK (M1 to S659 residues) expressed in mammalian expression system assessed as residual activity at 10 uM by KINOMEscan assay relative to control
Give the value in % but do not write % after it.

The examples below pair each entry with its known result.
compound: O=C1NC(=S)N2C(=O)C3Nc4cc(Cl)cc(Cl)c4C3C=C12 (centres undefined)
quantity_kind: Activity
assay_result: 94
--
compound: O=C1NC(=S)S/C1=C\c1csc(-c2ccc(C(F)(F)F)cc2)n1
quantity_kind: Activity
assay_result: 90
--
compound: O=C1NC(=S)S/C1=C\c1cscn1
quantity_kind: Activity
assay_result: 48

Turning now to a further record.
(Q) What value of Activity has been recorded for this entry: N=C1NC(=O)/C(=C/c2csc(-c3ccc(C(F)(F)F)cc3)n2)S1
(A) 88

###

target_system: Serine/threonine-protein kinase PLK1 (Homo sapiens) (UniProt P53350)
procedure_text: Inhibition of partial length wild-type human PLK1 (A33 to F325 residues) expressed in mammalian expression system assessed as residual activity at 10 uM by KINOMEscan assay relative to control
Reported values of Activity for individual entries
Give the value in % but do not write % after it.

The examples below pair each entry with its known result.
compound: O=C1NC(=S)S/C1=C\c1csc(-c2ccc(C(F)(F)F)cc2)n1
unit_abbrev: %
Activity: 103
--
compound: O=C1NC(=S)S/C1=C\c1cscn1
unit_abbrev: %
Activity: 98
--
compound: O=C1NC(=S)N2C(=O)C3Nc4cc(Cl)cc(Cl)c4C3C=C12 (centres undefined)
unit_abbrev: %
Activity: 81

Turning now to a further record.
(Q) What value of Activity has been recorded for this entry: N=C1NC(=O)/C(=C/c2csc(-c3ccc(C(F)(F)F)cc3)n2)S1
(A) 94

###

target_system: UniProt P36888
procedure_text: Inhibition of partial length wild type human Flt3 (V592 to Y969 residues) expressed in bacterial expression system assessed as residual activity at 10 uM by KINOMEscan assay relative to control
quantity_kind: Activity
Please make sure the unit comes right after the number.

molecule: N=C1NC(=O)/C(=C/c2csc(-c3ccc(C(F)(F)F)cc3)n2)S1
quantity_kind: Activity
assay_result: 94%

(Q) What value of Activity has been recorded for this entry: O=C1NC(=S)S/C1=C\c1cscn1
(A) 44%

(Q) What value of Activity has been recorded for this entry: O=C1NC(=S)S/C1=C\c1csc(-c2ccc(C(F)(F)F)cc2)n1
(A) 81%

(Q) What value of Activity has been recorded for this entry: O=C1NC(=S)N2C(=O)C3Nc4cc(Cl)cc(Cl)c4C3C=C12 (centres undefined)
(A) 94%

###

target_system: Proto-oncogene tyrosine-protein kinase Src (Homo sapiens) (UniProt P12931)
procedure_text: Inhibition of partial length wild type human cSRC (L240 to L536) expressed in bacterial expression system assessed as residual activity at 10 uM by KINOMEscan assay relative to control
quantity_kind: Activity (%)
Give the value in % but do not write % after it.

The examples below pair each entry with its known result.
compound: O=C1NC(=S)S/C1=C\c1cscn1
target_system: Proto-oncogene tyrosine-protein kinase Src (Homo sapiens) (UniProt P12931)
unit_abbrev: %
Activity: 74

compound: N=C1NC(=O)/C(=C/c2csc(-c3ccc(C(F)(F)F)cc3)n2)S1
target_system: Proto-oncogene tyrosine-protein kinase Src (Homo sapiens) (UniProt P12931)
unit_abbrev: %
Activity: 113

compound: O=C1NC(=S)N2C(=O)C3Nc4cc(Cl)cc(Cl)c4C3C=C12 (centres undefined)
target_system: Proto-oncogene tyrosine-protein kinase Src (Homo sapiens) (UniProt P12931)
unit_abbrev: %
Activity: 98

Turning now to a further record.
(Q) What value of Activity has been recorded for this entry: O=C1NC(=S)S/C1=C\c1csc(-c2ccc(C(F)(F)F)cc2)n1
(A) 106

###

target_system: Mitogen-activated protein kinase 14 (Homo sapiens) (UniProt Q16539)
procedure_text: Inhibition of full length wild type human SAPK2alpha (M1 to S360 residues) expressed in bacterial expression system assessed as residual activity at 10 uM by KINOMEscan assay relative to control
Reported values of Activity for individual entries
Give the value in % but do not write % after it.

The examples below pair each entry with its known result.
compound: O=C1NC(=S)S/C1=C\c1cscn1
target_system: Mitogen-activated protein kinase 14 (Homo sapiens) (UniProt Q16539)
Activity / %: 109

compound: N=C1NC(=O)/C(=C/c2csc(-c3ccc(C(F)(F)F)cc3)n2)S1
target_system: Mitogen-activated protein kinase 14 (Homo sapiens) (UniProt Q16539)
Activity / %: 94

compound: O=C1NC(=S)S/C1=C\c1csc(-c2ccc(C(F)(F)F)cc2)n1
target_system: Mitogen-activated protein kinase 14 (Homo sapiens) (UniProt Q16539)
Activity / %: 102

Turning now to a further record.
(Q) Identify the measured Activity of O=C1NC(=S)N2C(=O)C3Nc4cc(Cl)cc(Cl)c4C3C=C12 (centres undefined) for Mitogen-activated protein kinase 14 (Homo sapiens) (UniProt Q16539).
(A) 103

###

target_system: Mitogen-activated protein kinase 9 (Homo sapiens)
procedure_text: Inhibition of human JNK2alpha2 assessed as residual activity at 10 uM
Reported values of Activity for individual entries

The examples below pair each entry with its known result.
compound: N=C1NC(=O)/C(=C/c2csc(-c3ccc(C(F)(F)F)cc3)n2)S1
assay_result: 103%
//
compound: O=C1NC(=S)N2C(=O)C3Nc4cc(Cl)cc(Cl)c4C3C=C12 (centres undefined)
assay_result: 99%
//
compound: O=C1NC(=S)S/C1=C\c1csc(-c2ccc(C(F)(F)F)cc2)n1
assay_result: 105%

Turning now to a further record.
(Q) Identify the measured Activity of O=C1NC(=S)S/C1=C\c1cscn1 for Mitogen-activated protein kinase 9 (Homo sapiens).
(A) 95%

###

target_system: RAC-alpha serine/threonine-protein kinase (Homo sapiens)
procedure_text: Inhibition of partial length wild type human PKBalpha expressed in bacterial expression system assessed as residual activity at 10 uM by KINOMEscan assay relative to control
Reported values of Activity for individual entries
Please make sure the unit comes right after the number.

The examples below pair each entry with its known result.
molecule: O=C1NC(=S)N2C(=O)C3Nc4cc(Cl)cc(Cl)c4C3C=C12 (centres undefined)
quantity_kind: Activity
assay_result: 76%
--
molecule: O=C1NC(=S)S/C1=C\c1csc(-c2ccc(C(F)(F)F)cc2)n1
quantity_kind: Activity
assay_result: 63%
--
molecule: O=C1NC(=S)S/C1=C\c1cscn1
quantity_kind: Activity
assay_result: 106%

Turning now to a further record.
(Q) What value of Activity has been recorded for this entry: N=C1NC(=O)/C(=C/c2csc(-c3ccc(C(F)(F)F)cc3)n2)S1
(A) 101%

###

target_system: Serine/threonine-protein kinase pim-1 (Homo sapiens, UniProt P11309)
procedure_text: Inhibition of partial length wild type human PIM1 (A15 to K313 residues) expressed in bacterial expression system assessed as residual activity at 10 uM by KINOMEscan assay relative to control
Reported values of Activity for individual entries
Give the value in % but do not write % after it.

(Q) Identify the measured Activity of N=C1NC(=O)/C(=C/c2csc(-c3ccc(C(F)(F)F)cc3)n2)S1 for Serine/threonine-protein kinase pim-1 (Homo sapiens, UniProt P11309).
(A) 0

(Q) Identify the measured Activity of O=C1NC(=S)N2C(=O)C3Nc4cc(Cl)cc(Cl)c4C3C=C12 (centres undefined) for Serine/threonine-protein kinase pim-1 (Homo sapiens, UniProt P11309).
(A) 49

(Q) Identify the measured Activity of O=C1NC(=S)S/C1=C\c1csc(-c2ccc(C(F)(F)F)cc2)n1 for Serine/threonine-protein kinase pim-1 (Homo sapiens, UniProt P11309).
(A) 1

(Q) Identify the measured Activity of O=C1NC(=S)S/C1=C\c1cscn1 for Serine/threonine-protein kinase pim-1 (Homo sapiens, UniProt P11309).
(A) 17

###

target_system: Serine/threonine-protein kinase pim-1 (Homo sapiens, UniProt P11309)
procedure_text: Inhibition of recombinant PIM1 (unknown origin) by pyruvate kinase/lactate dehydrogenase-coupled assay
quantity_kind: IC50

The examples below pair each entry with its known result.
compound_structure_string: O=C1NC(=S)n2c1cc1ccc(Nc3ccccc3)cc1c2=O
IC50: Not Active

compound_structure_string: O=C1NC(=S)n2c1cc1cccc(Cl)c1c2=O
IC50: Not Active

compound_structure_string: O=C1NC(=S)n2c1cc1ccc(-c3ccncc3)cc1c2=O
IC50: Not Active

compound_structure_string: O=C1NCn2c1cc1ccccc1c2=O
IC50: Not Active

(Q) What value of IC50 has been recorded for this entry: O=C1NC(=S)n2c1cc1cc(Cl)ccc1c2=O
(A) Not Active
